Test system: SF-295 CNS
Test: NCI tumour cell line growth inhibition, 48 h
Parameter measured: GI50

COc1cc(/C=C/C(=O)c2ccc(NC(=O)CN3CCN(c4cc5c(cc4F)c(=O)c(C(=O)O)cn5C4CC4)CC3)cc2)cc(OC)c1OC: 0.98 µM
COc1cc2c(cc1Nc1nc(Nc3ccsc3C(N)=O)c3cc[nH]c3n1)N(C(=O)CN(C)C)CCC2(C)C: 3.33 µM
C[C@@H](CO)[C@@H]1CCC=C2CC[C@]3(C)[C@H](CC[C@@H]4[C@@]5(C)CCCNC(C)(C)[C@@H]5CC[C@]43C)[C@H]21: 1.66 µM

Name the recorded GI50 of the item CC[C@@H](C(=O)[C@@H](C)[C@@H](O)[C@H](C)[C@@H]1O[C@@H]([C@@H](CC)C(=O)N(CC)CC)CC[C@@H]1C)C1O[C@]2(C=CC(=O)[C@]3(CC[C@@](C)([C@H]4CC[C@](O)(CC)[C@H](C)O4)O3)O2)[C@H](C)C[C@@H]1C (some centres not stated) in your answer.
2.26 µM

Answer with reported GI50 of "COc1ccc(-c2nc3ccccn3c2/C=C/C(=O)c2cc(OC)c(OC)c(OC)c2)cc1"
15.2 µM

Annotate the molecule "CC(C)CCN=C(N)c1ccc(N2CCN(c3ccc(C(N)=NCCC(C)C)cc3)CC2)cc1" with its measured GI50.
6.68 µM

Give a short answer stating reported GI50 for "CO/N=C(\C)COc1ccc2c(=O)c(-c3ccccc3)coc2c1" .
31.9 µM

* * *

System: NCI-H460 lung
Assay: NCI tumour cell line growth inhibition, 48 h
Parameter measured: TGI

Past entries and their recorded results:
N=C(N)SCc1ccc(Cl)cc1Cl (tested in a mixture with another compound): 24.2 µM
O=C1/C(=C/c2ccc(Cl)cc2)N=C(c2ccccc2)N1CCc1cccs1: > 100 µM

Could you now consider this next molecule?
Please indicate TGI recorded for "COc1ccc2oc(OC)c(CC=C(C)C)c(=O)c2c1C"
> 100 µM

* * *

System: PC-3 prostate
Test: NCI tumour cell line growth inhibition, 48 h
Parameter measured: TGI (µM)
Only the number, expressed in µM, is required.

COc1cc2c(cc1Nc1nc(Nc3ccsc3C(N)=O)c3cc[nH]c3n1)N(C(=O)CN(C)C)CCC2(C)C: 7.01

Please tell me the measured TGI for "COc1cc2c(cc1C)NC(=O)/C2=C\c1cccc(Oc2ccccc2)c1" ; system: PC-3 prostate.
25.2

* * *

System: SF-295 CNS
Assay: NCI tumour cell line growth inhibition, 48 h
Recorded GI50 by entry

Give SF-295 CNS GI50 for the following compound: "CN(CC(=O)N(Cc1ccc(C2CCCCC2)cc1)c1ccc(C(=O)O)c(O)c1)S(=O)(=O)c1c(F)c(F)c(F)c(F)c1F"
17.4 µM

# lookup: SF-295 CNS GI50, key = "COc1ccc2c(c1)C(=O)c1c-2c(Nc2ccc(Cl)cc2)nc2ccccc12"
16.7 µM

System SF-295 CNS. Read-out GI50. Item "Nc1nc(-c2ccccc2)nc(N)c1N=O" . Report value.
18.1 µM

State recorded GI50 with SF-295 CNS, entry C=C1CCC2C(C)(C)CCC[C@]2(C)[C@H]1CO (some centres not stated) , no comment.
> 100 µM

Give GI50 for this entry on SF-295 CNS: "CC1(C)[C@@H](O[C@@H]2OC[C@@H](O[C@@H]3O[C@H](CO)[C@@H](O)[C@H](O)[C@H]3O[C@@H]3OC[C@@H](O)[C@H](O)[C@H]3O)[C@H](O)[C@H]2O[C@@H]2O[C@H](CO)[C@@H](O)[C@H](O)[C@H]2O)CC[C@]2(C)[C@H]3CC[C@]45OC[C@@]6(CC[C@](C)(C=O)C[C@H]64)[C@H](O)C[C@@]5(C)[C@]3(C)CC[C@@H]12"
0.892 µM

Report value: GI50, system: SF-295 CNS, compound: "O=C(NCc1ccc(Cn2c(=O)sn(-c3ccccc3)c2=O)cc1)OCc1ccc2c(Br)cc(Br)c(O)c2n1"
1.6 µM

Look up SF-295 CNS data: GI50 of "COc1ccc(OC)c(/C=C(/C)[N+](=O)[O-])c1" , then report it.
11.2 µM

* * *

System: SK-MEL-2 melanoma
Experiment: NCI tumour cell line growth inhibition, 48 h; in the data active = GI50 below about 0.43 µM; inactive = the rest
Return exactly one item of active, inactive

Here are 3 molecules together with their reported answers.
CC[C@@H](C(=O)[C@@H](C)[C@@H](O)[C@H](C)[C@@H]1O[C@@H]([C@@H](CC)C(=O)N(CC)CC)CC[C@@H]1C)C1O[C@]2(C=CC(=O)[C@]3(CC[C@@](C)([C@H]4CC[C@](O)(CC)[C@H](C)O4)O3)O2)[C@H](C)C[C@@H]1C (some centres undefined): inactive
C=C1CCC2C(C)(C)CCC[C@]2(C)[C@H]1CO (some centres undefined): inactive
Cn1ccnc1C(=O)/C=C/c1ccccc1: inactive

Kindly review the next molecule as well.
Short answer needed: outcome of this test for "Fc1ccc(Nc2nc3nonc3nc2Nc2ccc(F)cc2)cc1" ?
active

* * *

Test system: M14 melanoma
Assay: NCI tumour cell line growth inhibition, 48 h; in the data active means GI50 below about 0.43 µM; inactive means the rest
Form entry, call: pick from Yes for active, No for inactive

Solved cases below.
COc1ccc(Cn2cc3c(c2-c2ccc(OC)cc2)CCc2cnoc2-3)cc1: Yes
O=C(Nc1ccccc1)NS(=O)(=O)c1ccc(-n2nc3c(c2-c2ccc(Cl)cc2)Cc2ccccc2-3)cc1: No
CCNC(=O)c1cc2c(-c3cc(C(C)(C)O)ccc3Oc3c(C)cc(F)cc3C)cn(C)c(=O)c2[nH]1: No
CN(C)c1ccc(Nc2cc(-c3cccc(OC(F)(F)F)c3)nc3ccc(N4CCCC4)cc23)cc1: No
CN1c2ccccc2C(C)(C)C12C=Cc1cc(O)ccc1O2 (stereo not given): No
N#Cc1c(N)nc(N2CCOCC2)c(C#N)c1-c1cccnc1: No
COc1ccc2c(c1)C(=O)c1c-2c(Nc2ccc(Cl)cc2)nc2ccccc12: No
CO/N=C(\C)COc1ccc2c(=O)c(-c3ccccc3)coc2c1: No

What did the test return for "CN1CCN(c2ccc3nc(-c4ccc5nc(-c6ccc(OCCC(C)(C)C)cc6)[nH]c5c4)[nH]c3c2)CC1" ?
No

Entry CC(=Nc1ccccc1)C1=C(O)C(Cc2ccccc2)NC1=O (stereo not given) : call = ?
Yes

State the result this test recorded for "COc1ccc(Nc2c3ccccc3nc3ccccc23)cc1" .
No

Test call, this compound: N#CSCC1CC(O)(c2ccccc2)CC(c2ccc(F)cc2)O1 (stereo not given)
No

Lab log entry: CCC1CCc2nc3sc(C(=O)Nc4cccc(F)c4)c(N)c3cc2C1 (stereo not given) — outcome as called in the assay?
Yes

State the result this test recorded for "COc1cc(/C=C/C(=O)c2ccc(NC(=O)CN3CCN(c4cc5c(cc4F)c(=O)c(C(=O)O)cn5C4CC4)CC3)cc2)cc(OC)c1OC" .
No

Assay result, entry "Cc1cc(Cl)ccc1NC(=O)c1cc2ccccc2cc1O" — outcome?
No

* * *

Measured TGI by item
Tested on: MCF7 breast
Assay: NCI tumour cell line growth inhibition, 48 h
Your answer is read as µM, so omit the unit and give the number.

Provide TGI value for the following compound: "COC(=O)C1=C(C)NC(C)=C(C(=O)OC)C1/C=C(Cl)/C=C/c1ccccc1"
78.5

Answer with the recorded TGI for the compound listed here: Cc1ccc(OC2CC(n3cnc4ncnc(Cl)c43)OC2Oc2ccc(C)cc2)cc1 (stereo not drawn)
29.9

Retrieve TGI measured for "CCN1CCN(c2nc3ccc([N+](=O)[O-])cc3nc2C(=O)c2ccccc2)CC1" and print it.
34.8

For the compound CC(=O)O[C@@H]1C2=C(C)C=C(O2)[C@H]2O[C@]2(C)C[C@H]2C=C(C(=O)O2)[C@H](OC(C)=O)CC1[C@@]1(C)CO1 (stereo partly drawn) , give its measured TGI value.
44.8

* * *

Test system: BT-549 breast
Experiment: NCI tumour cell line growth inhibition, 48 h
Parameter measured: GI50

Worked set:
CC(C)CCN=C(N)c1ccc(N2CCN(c3ccc(C(N)=NCCC(C)C)cc3)CC2)cc1: 474 nM
COc1ccc(OC)c(/C=C(/C)[N+](=O)[O-])c1: 5400 nM
COc1cc(/C=C/C(=O)c2c(C)nc3ccccc3c2C)ccc1OCCCOc1cc2c(cc1OC)C(=O)N1CCC[C@H]1C=N2: 14.9 nM
Fc1ccc(Nc2nc3nonc3nc2Nc2ccc(F)cc2)cc1: 309 nM

Retrieve GI50 measured for "CC(=O)O[C@]1(C(C)=O)CC[C@H]2[C@@H]3C=C(C)C4=CC(=O)CC[C@]4(C)[C@H]3CC[C@@]21C" and print it.
37400 nM

Give me measured GI50, please, for this compound: "COC(=O)C1=C(C)NC(C)=C(C(=O)OC)C1/C=C(Cl)/C=C/c1ccccc1"
21600 nM

For "Nc1nc(-c2ccc(F)cc2)c(-c2ccc3ncccc3n2)s1" , write its GI50.
16100 nM

Output GI50 of "N#Cc1c(N)nc(N2CCOCC2)c(C#N)c1-c1cccnc1"
> 100000 nM

Answer with the recorded GI50 of "COc1ccc(Nc2c3ccccc3nc3ccccc23)cc1" only.
5990 nM

Read the entry CCC1CCc2nc3sc(C(=O)Nc4cccc(F)c4)c(N)c3cc2C1 (centres undefined) and write its reported GI50.
> 100000 nM

Indicate the recorded GI50 value for this compound: "CCNC(=O)c1cc2c(-c3cc(C(C)(C)O)ccc3Oc3c(C)cc(F)cc3C)cn(C)c(=O)c2[nH]1"
2010 nM

Check the records and state GI50 for "CN(C)c1ccc(Nc2cc(-c3cccc(OC(F)(F)F)c3)nc3ccc(N4CCCC4)cc23)cc1"
1960 nM

Note down GI50 recorded for "O=C(NCc1ccc(Cn2c(=O)sn(-c3ccccc3)c2=O)cc1)OCc1ccc2c(Br)cc(Br)c(O)c2n1"
614 nM

// Input: "Cc1cc(N(CCNc2ccnc3cc(Cl)ccc23)Cc2ccco2)nc(Cl)n1" . Output its GI50 only.
1690 nM
